# TARGET SYSTEM: Phospholipid hydroperoxide glutathione peroxidase GPX4 (Homo sapiens) (UniProt P36969)
# Sequence (P36969 whole entry, looked up): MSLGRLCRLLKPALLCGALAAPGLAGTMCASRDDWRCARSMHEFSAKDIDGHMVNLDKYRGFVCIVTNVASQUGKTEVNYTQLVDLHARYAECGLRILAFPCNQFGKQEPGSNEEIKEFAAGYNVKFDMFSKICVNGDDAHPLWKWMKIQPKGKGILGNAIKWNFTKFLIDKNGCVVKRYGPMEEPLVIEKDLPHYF
# EXPERIMENT SUMMARY: Primary qHTS Assay for Inhibitors of Recombinant Selenoprotein Glutathione Peroxidase 4 (GPX4) (AID 1845192); further: nearly all actives have a fitted effect of over 65% in size
# RUN CONDITIONS: recombinant GPX4, GR-coupled NADPH fluorescence, 15 min; series mostly up to 50 µM
Results filed as inconclusive are left out. The source made the active and inactive calls. The call rests on the fitted dose curve; in most records, active means well fitted inhibition curve with a large enough effect; inconclusive means small, poorly fitted or top-dose-only effect; inactive means flat fitted curve, though single readings scatter.
Outcome codes: Yes = active, No = inactive

molecule=Nc1cccc(CNC(=O)c2ccc(Oc3ccc(OCc4cccc(F)c4)cc3)nc2)c1 assigned_class=No
molecule=C#CCOc1ccc2c(c1)c(-c1ccc(C(C)C)cc1)nc(=O)n2C(C)C assigned_class=No
molecule=O=C(NCCN1CCN(c2cccc3ccc(O)cc23)CC1)c1ccc(F)cc1 assigned_class=No
molecule=C1CNCCN1 assigned_class=No
molecule="CCNC(=O)Nc1ccc(-c2nc3c(c(N4CCOCC4C)n2)CCN(C2COC2)C3)cc1 (stereo unspecified)" assigned_class=No
molecule=Oc1cccc(-c2c3nc(c(-c4cccc(O)c4)c4ccc([nH]4)c(-c4cccc(O)c4)c4nc(c(-c5cccc(O)c5)c5ccc2[nH]5)CC4)C=C3)c1 assigned_class=No
molecule=CCOc1cn(-c2ccc(F)cc2C)nc1C(=O)Nc1ccc(Oc2ccnc3cc(OC)c(OC)cc23)c(F)c1 assigned_class=No
molecule="CC[C@@H](C)Nc1cc(C(=O)NC2CC3CC[C@@H](C2)N3c2ccc(C(=O)C3CC3)cn2)c(C)cc1C(N)=O (stereo partly specified)" assigned_class=Yes
molecule=COc1ccc(CN2CCN(C(=O)CCNC(=O)c3ccc(C(C)(C)C)cc3)CC2)cc1 assigned_class=No
molecule="C/C=C/C1=CC2=C(CO1)C(=O)C(C)(OC(=O)c1c(C)cc(O)cc1OC)C(O)C2 (stereo unspecified)" assigned_class=No
molecule=CO[C@H]1[C@@H](O)[C@H](N)[C@@H](O[C@H]2O[C@H]([C@H](C)N)CC[C@H]2N)[C@H](O)[C@@H]1N(C)C(=O)CN assigned_class=No
molecule="CC1(C=O)CCCC2(C)C1CCC13CC(CO)C(CCC12)C3 (stereo unspecified)" assigned_class=No
molecule=O=C(NCc1ccccc1-c1ccccc1C(=O)NCCc1ccccn1)OCc1ccccc1 assigned_class=No
molecule="CCC(C)/C=C(C)/C=C/C1=CC2=CC(=O)C3(C)OC(C)(O)C(C(=O)OC)C3C2=CO1 (stereo unspecified)" assigned_class=No
molecule=Cc1ccc(N2CCN(S(=O)(=O)N3CCCCC3)CC2)c(C)c1 assigned_class=No
molecule=C[C@H](Nc1cc2c(-c3ccc4c(c3)OCO4)noc2cn1)c1ccccc1 assigned_class=No
